Answer each item with its documented pKi.
test: Inhibition of [3H]KA binding to human iontropic glutamate receptors 6 and KA-2
pKi: −log10 of the molar value.

{"compound": "NS(=O)(=O)c1cccc2c1c([N+](=O)[O-])cc1nc(O)c(O)nc12 [NBQX]", "pKi": 6.22}
{"compound": "CCC(CC)COC(=O)[C@@H]1C[C@H]2C[C@@H](Nc3ccccc3-c3nn[nH]n3)CC[C@H]2CN1", "pKi": "< 4.00"}

--- query ---
Entry O=C(O)[C@@H]1C[C@H]2C[C@@H](CCc3nn[nH]n3)CC[C@H]2CN1 [TEZAMPANEL ANHYDROUS] , pKi reported as < 4.00

====

Reported Ki, Glutamate receptor ionotropic, kainate 1 (Homo sapiens).
One number for each entry, in nM.

Examples from the recorded data:
{"compound": "CCC(CC)COC(=O)[C@@H]1C[C@H]2C[C@@H](Nc3ccccc3-c3nn[nH]n3)CC[C@H]2CN1", "metricName": "Ki", "uom": "nM", "resultNumber": 31800}
{"compound": "O=C(O)[C@@H]1C[C@H]2C[C@@H](CCc3nn[nH]n3)CC[C@H]2CN1 [TEZAMPANEL ANHYDROUS]", "metricName": "Ki", "uom": "nM", "resultNumber": 4160}
{"compound": "O=C(O)[C@@H]1C[C@H]2C[C@@H](Oc3ccccc3-c3nn[nH]n3)CC[C@H]2CN1", "metricName": "Ki", "uom": "nM", "resultNumber": 1690}

--- query ---
Entry O=C(O)[C@@H]1C[C@H]2C[C@@H](Nc3ccccc3-c3nn[nH]n3)CC[C@H]2CN1 , Ki reported as 1550

====

assay: Inhibition of [3H]KA binding to human iontropic glutamate receptors 5 and KA-2
metricName: pKi
Give bare numbers, as −log10 of the molar value.

{"molecule": "O=C(O)[C@@H]1C[C@H]2C[C@@H](Oc3ccccc3-c3nn[nH]n3)CC[C@H]2CN1", "metricName": "pKi", "resultNumber": 5.10}
{"molecule": "CC(C)COC(=O)[C@@H]1C[C@H]2C[C@@H](Oc3ccccc3-c3nn[nH]n3)CC[C@H]2CN1", "metricName": "pKi", "resultNumber": 4.22}
{"molecule": "O=C(O)[C@@H]1C[C@H]2C[C@@H](Nc3ccccc3-c3nn[nH]n3)CC[C@H]2CN1", "metricName": "pKi", "resultNumber": 5.01}

Quick request: pKi for each listed item, please.
1. NS(=O)(=O)c1cccc2c1c([N+](=O)[O-])cc1nc(O)c(O)nc12 [NBQX]
2. O=C(O)[C@@H]1C[C@H]2C[C@@H](CCc3nn[nH]n3)CC[C@H]2CN1 [TEZAMPANEL ANHYDROUS]

1. 4.58
2. 4.79

Each recorded value in this set is attributed to ChEMBL document CHEMBL1139549.
